# target: CXCR7 (Homo sapiens)
# Construct: host or cells: CHO (PathHunter CHO-CXCR7 β-arrestin cells)
# Sequence (P25106 whole entry): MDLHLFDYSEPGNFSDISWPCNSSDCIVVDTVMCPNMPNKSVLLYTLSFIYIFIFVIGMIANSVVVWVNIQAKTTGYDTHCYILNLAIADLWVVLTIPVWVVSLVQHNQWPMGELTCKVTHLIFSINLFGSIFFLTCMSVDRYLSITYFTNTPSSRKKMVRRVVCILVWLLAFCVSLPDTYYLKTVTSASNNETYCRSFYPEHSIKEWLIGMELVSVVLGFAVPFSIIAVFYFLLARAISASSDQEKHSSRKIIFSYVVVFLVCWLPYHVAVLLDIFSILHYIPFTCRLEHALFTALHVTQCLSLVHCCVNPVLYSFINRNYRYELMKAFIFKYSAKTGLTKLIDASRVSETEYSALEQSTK
# procedure-text: CXCR7 β-arrestin recruitment assay (PathHunter CHO-CXCR7, agonistic assay)
# Assay type: cell-based
# run-parameters: CHO CXCR7 β-arrestin cells, agonistic assay, 90 min at 37° C., chemiluminescence; read-out: β-Arrestin EC50
# Protocol: Lyophilized peptides were weighed on a Microbalance (Mettler MX5) and dissolved in DMSO to a final concentration of 10 mM unless otherwise stated. Stock solutions were kept at +4° C., and protected from light. 2.2 CXCR7 β-Arrestin Recruitment Assay The PathHunter CHO-CXCR7 (DiscoverX) assay was performed according to the manufacturer's protocol. […]
Square brackets hold non-standard residues; d marks the D form. Peptide text beside a SMILES is read from it. 1Nal = N[C@@H](Cc1cccc2ccccc12)C(=O)O; Tic = O=C(O)[C@@H]1Cc2ccccc2CN1; Aze = O=C(O)[C@@H]1CCN1; Abu = CC[C@H](N)C(=O)O
# reported pEC50; entries follow
Units for pEC50: none; it is -log10 of a concentration expressed in mol/L.

Study these solved cases before continuing.
# compound, measured
measured = [
    ("N=C(N)NCCC[C@@H]1NC(=O)[C@H](Cc2c[nH]c3ccccc23)NC(=O)[C@@H](Cc2ccccc2)NC(=O)[C@H](Cc2ccccc2)NC(=O)[C@@H]2Cc3ccccc3CN2C(=O)[C@H]2CCCN2C1=O [Ex. 2, cyclo(-Phe-^DPhe-Trp-Arg-^DPro-Tic-)] (cyclo(F[dF]WR[dP][Tic]))", 7.65),
    ("N=C(N)NCCC[C@@H]1NC(=O)[C@H](Cc2ccccc2)NC(=O)[C@@H](Cc2ccccc2)NC(=O)[C@H](Cc2c[nH]c3ccccc23)NC(=O)[C@@H]2Cc3ccccc3CN2C(=O)[C@H]2CCCN2C1=O [compound 15, cyclo(-Trp-^DPhe-Phe-Arg-^DPro-Tic-)] (cyclo(FR[dP][Tic]W[dF]))", 7.12),
    ("N=C(N)NCCC[C@@H]1NC(=O)[C@@H]2Cc3ccccc3CN2C(=O)[C@H]2CCCN2C(=O)[C@H](CCCNC(=N)N)NC(=O)[C@H](Cc2c[nH]cn2)NC(=O)[C@@H](Cc2c[nH]c3ccccc23)NC1=O [compound 35, cyclo(-Arg-^DTrp-His-Arg-^DPro-Tic-)] (cyclo(HR[dP][Tic]R[dW]))", 6.63),
    ("C[C@@H]1NC(=O)[C@@H]2Cc3ccccc3CN2C(=O)[C@H]2CCCN2C(=O)[C@H](CCCNC(=N)N)NC(=O)[C@H](Cc2c[nH]c3ccccc23)NC(=O)[C@@H](Cc2ccccc2)NC1=O [Ex. 1, cyclo(-Ala-^DPhe-Trp-Arg-^DPro-Tic-)] (cyclo(A[dF]WR[dP][Tic]))", 6.79),
    ("CC[C@@H]1NC(=O)[C@@H]2Cc3ccccc3CN2C(=O)[C@H]2CCCN2C(=O)[C@H](Cc2c[nH]c3ccccc23)NC(=O)[C@H](CCCNC(=N)N)NC(=O)[C@@H](CCCNC(=N)N)NC1=O [compound 30, cyclo(-Abu-^DArg-Arg-Trp-^DPro-Tic-)] (cyclo([Abu][dR]RW[dP][Tic]))", 7.01),
    ("CC[C@H](C)[C@@H]1NC(=O)[C@@H](Cc2c[nH]cn2)NC(=O)[C@H](Cc2cccc3ccccc23)NC(=O)[C@@H]2CCN2C(=O)[C@H]2CCCN2C(=O)[C@H](CCCNC(=N)N)NC1=O [Ex. 42, cyclo(-1Nal-^DHis-Ile-Arg-^DPro-Azt-)] (cyclo([1Nal][dH]IR[dP][Aze]))", 7.07),
]

Q: What measured pEC50 goes with N=C(N)NCCC[C@@H]1NC(=O)[C@H](Cc2ccc(O)cc2)NC(=O)[C@@H](Cc2ccccc2)NC(=O)[C@H](Cc2c[nH]c3ccccc23)NC(=O)[C@@H]2Cc3ccccc3CN2C(=O)[C@H]2CCCN2C1=O [compound 16, cyclo(-Trp-^DPhe-Tyr-Arg-^DPro-Tic-)] (cyclo(R[dP][Tic]W[dF]Y)) ?
Ans: 6.49

Q: What measured pEC50 goes with N=C(N)NCCC[C@@H]1NC(=O)[C@H](Cc2c[nH]c3ccccc23)NC(=O)[C@@H](Cc2c[nH]cn2)NC(=O)[C@H](Cc2c[nH]c3ccccc23)NC(=O)[C@@H]2Cc3ccccc3CN2C(=O)[C@H]2CCCN2C1=O [compound 11, cyclo(-Trp-^DHis-Trp-Arg-^DPro-Tic-)] (cyclo(R[dP][Tic]W[dH]W)) ?
Ans: 6.69

Q: What measured pEC50 goes with N=C(N)NCCC[C@@H]1NC(=O)[C@H](Cc2c[nH]c3ccccc23)NC(=O)[C@@H](Cc2ccccc2)NC(=O)[C@H](Cc2cccc3ccccc23)NC(=O)[C@@H]2Cc3ccccc3CN2C(=O)[C@H]2CCCN2C1=O [compound 7, cyclo(-1Nal-^DPhe-Trp-Arg-^DPro-Tic-)] (cyclo([1Nal][dF]WR[dP][Tic])) ?
Ans: 7.21

Q: What measured pEC50 goes with N=C(N)NCCC[C@@H]1NC(=O)[C@H](Cc2c[nH]c3ccccc23)NC(=O)[C@@H](CCCNC(=N)N)NC(=O)[C@H](Cc2c[nH]c3ccccc23)NC(=O)[C@@H]2Cc3ccccc3CN2C(=O)[C@H]2CCCN2C1=O [compound 13, cyclo(-Trp-^DArg-Trp-Arg-^DPro-Tic-)] (cyclo(R[dP][Tic]W[dR]W)) ?
Ans: 6.89

Q: What measured pEC50 goes with CC[C@H](C)[C@@H]1NC(=O)[C@@H](Cc2c[nH]cn2)NC(=O)[C@H](Cc2c[nH]c3ccccc23)NC(=O)[C@@H]2CCN2C(=O)[C@H]2CCCN2C(=O)[C@H](CCCNC(=N)N)NC1=O [compound 47, cyclo(-Trp-^DHis-Ile-Arg-^DPro-Azt-)] (cyclo([Aze]W[dH]IR[dP])) ?
Ans: 6.46

Q: What measured pEC50 goes with NCCCC[C@@H]1NC(=O)[C@H](Cc2c[nH]c3ccccc23)NC(=O)[C@@H](Cc2ccccc2)NC(=O)[C@H](Cc2c[nH]c3ccccc23)NC(=O)[C@@H]2Cc3ccccc3CN2C(=O)[C@H]2CCCN2C1=O [compound 20, cyclo(-Trp-^DPhe-Trp-Lys-^DPro-Tic-)] (cyclo(K[dP][Tic]W[dF]W)) ?
Ans: 7.78

Q: What measured pEC50 goes with N=C(N)NCCC[C@@H]1NC(=O)[C@H](Cc2c[nH]c3ccccc23)NC(=O)[C@@H](CCCNC(=N)N)NC(=O)[C@H](Cc2cccc3ccccc23)NC(=O)[C@@H]2CCN2C(=O)[C@H]2CCCN2C1=O [compound 44, cyclo(-1Nal-^DArg-Trp-Arg-^DPro-Azt-)] (cyclo([1Nal][dR]WR[dP][Aze])) ?
Ans: 6.84

Attribution: patent US8629112B2
